ASSAY_EXPLANATION: yeast display, Sf9 membrane polyspecificity reagent, FACS + sequencing; frameworks hold sequencing errors
PROPERTY: polyreactivity (PSR sort gate)

{"columns": ["SEQUENCE_DATA", "READING"],
 "data": [
  ["QVQLVESGGGLVQAGGSLRLSCAASGRTFKSYAMGWYRQAPGKERELVAAISRSSGSTYYADSVKGRFTISRDNAKNTVYLQMNSLKPEDTAVYYCATTKRVGYNYWGQGTQVTVSS", "high polyreactivity"],
  ["QVQLVESGGGLVQAGGSLRLSCAASGRIFYPYAMGWYRQAPGKERELVGYSRGGSTNYADSVKGRFTISRDNAKNTVYLQMNSLKPEDTAVYYCARDVHRSGYLIFDYWGQGTQVTVSS", "low polyreactivity"],
  ["QVQLVESGGGLDQSGGSLRLTCAASGFTFVINDMGRYIHAPGKEMEWVADITSGGDTYYADSVKGRFTISRDNAKNTVYLQSNRLKPEDTAVYYCAADIYPDWIYLLYGYWGQGTQVNVSS", "low polyreactivity"],
  ["QVQLVESGGGLVQAGGSLRLSCAASGSTFYKYGMGRNTQAHGKERELVAAISGSGDSTYYADSVKGRFTISRDNAKNSVYLQMNSLKPEDTAVYYCNAGPWCYLHEYDYWGQGTQVTVSS", "low polyreactivity"],
  ["QVQLVESGGGLVQAGGSLRLSCAASGSILYAYAMGWYRQAPGKERELLAAISSSGGGTYADSVKGRFTISRDNAKNTVYLQMNSLKPEDTAVYYCNADARGGIYFRGVKFDYWGQGTQVTVSS", "high polyreactivity"]
]}

---

ASSAY_EXPLANATION: yeast display, Sf9 membrane polyspecificity reagent, FACS + sequencing; frameworks hold sequencing errors

{"columns": ["SEQUENCE_DATA", "polyreactivity (PSR sort gate)"],
 "data": [
  ["QVQLVESGGGLVQAGGSLRLSCAASGFTCAWYTMGWYREAPGKERELVAAISLNGGSTYYADSVKGRFTISRDNAKNTVYLQMNRLKPEDTAVYYCAKGYRWPYYPYDYWGQGTQVTVSS", "low polyreactivity"],
  ["QVQLVESGGGLVHAGGSLRLSCAAYGRTFKYNAMGWNRQAPGKERELVAAISSRGGSTYYADSVKGRFTISRDNAKNTVYLQMNSLKPEDTAVYYCAIATSSSEYGYDYWGQGTQVTVSS", "high polyreactivity"],
  ["QVQLVESGGCLVQAGGSLRLSCASSGRTFSWNAMGCYRQAPGKEREFVAAISNSGGSTYYADSVNGRFTISRDNAKNTVYLQMNSLKPEDTAVYYCAVYRYYGFSLWYDYWGQCTQVTVSS", "low polyreactivity"],
  ["QVQLVESGGGLVQAGGSLRLSCAASGSIFDANAIGWYRQAPGKERELVAAIDSGDITNYADSVKGRFTISRDNAKNTVYLQMNSLKPEDTAVYYCAAEWHYIYAYDYWGQGTQVTVSS", "low polyreactivity"],
  ["QVQLVESGGGLVQAGGSLRLSCAASGSTLWTYAMGWYRQAPGKERELVAAISGGGGSTYYADSVKGRFTISRDNAKNTVYLQMNSLKPEDTAVYYCAAVTWVGWGQRRRDYWGHGTQVTVSS", "high polyreactivity"],
  ["QVQLVESGGGLVQAGGSLRLSCAASGFTFRIYAMGWYRQAPGKERELVATISWSGTSTYYADSVKGRFTISRDYAKNTVFFQMNSLNPEDTAVYYCAKDGVSFYWLNKYYYWGQGTQVTVSS", "low polyreactivity"],
  ["QVQLVESGGGLVQAGGSLRLSCAASGRTFYAYAMGWYRQAPGKERELVAAIRISGTSTYYADSVKGRFTISRDNAKNTVYLQMNSLKPEDTAVYYCARYVKLSGYGFYYWGQGTQVTVSS", "high polyreactivity"],
  ["QVQLVESGGGLVQAGGSLRLSCAASGIIFRLNAMGWYRQAPGKERELVAAMRRRGGSTYYADSVKGRFTISRDNAKNTVYLQMNSLKPEDTAVYYCAKDPVTTFYKYDYWGQGTQVTVSS", "low polyreactivity"],
  ["QVQLVESGGGLVQAGGSLRLSCAASGSIFVTNAMAWYSQAPGKERELVAAISWRGGSTYYADSVKGRFTISRDNAKNTVYLQMNSLKPEDTAVYYCNTYHPYWGSGFDYWGQGTEVTVSS", "low polyreactivity"],
  ["QVQLVESGGGLVQAGGSLRLSCAASGYNFHDYAMGWYRQAPGKERELFAAISKRGGSTYYADSVKGRFTISRDNAKNTVYLQMNSLKPEDTAVYYCAKGGPHRGTGLNDYWGQCTQVTVSS", "high polyreactivity"],
  ["QVHLVESGGGLVQAGGSLRLSCAASGRTFTRYTMGCYRQAPGKESELVAAISRRGGSTYYADSVKGRFTISRHNAKNTVYLQMNSLKPEDTAFYYCNADYVPGRPSFIYDYWGQGTQVTVSS", "high polyreactivity"]
]}

---

ASSAY_EXPLANATION: yeast display, Sf9 membrane polyspecificity reagent, FACS + sequencing; frameworks hold sequencing errors

{"columns": ["SEQUENCE_DATA", "polyreactivity (PSR sort gate)"],
 "data": [
  ["QVQLVESGGGLVQAGGSLRLSCAASGSIFGKNAMGWYRPAPGKERELVAAITRRGGSTYYADSVKGRFTISRDNAKNTVYLQMISLKPEDTAVYYCNALLTGGYQDSYPDDYWGQGTQVTVSS", "high polyreactivity"],
  ["QVQVVESGGGLVQAGGSLRLSCAASGITFWGYAMGWYRQAPGKERELVAAITRTGSTYYADSVKGRFTISRDNAKNTVYLQMNSLKPEDTALYYCAAYTPNASTYRRKSSKKVYYWGQGTQVTVSS", "high polyreactivity"],
  ["QVQLVESGGGLVQAGGSLRLSCAASGFIFATNNMGWYRQAPGKERELVAASSTYYADSVKGRFTISRDNAKNTVYLQMNSLKPEDTAVYYCNALYRYLYRSGDYWGLGTQVTVSS", "low polyreactivity"],
  ["QVQLVESGGGLVQAGGSLRLSCAASGSIIWLYAMGWYRQAPGKERELVAAISSGGSTYYADSVKGRFTISRDNAKNTVYLQMNSLKPEDTAVYYCNVDYWQPWQYDYWGQGTQVTVSS", "high polyreactivity"],
  ["QVQLVESGGGLVQAGGSLRLSCAASGRIFWSYAMGWYRQAPGKERELVAAIRSGGTTDYADAVKGRFTISRDNAKYTVYLQMNSLKPEDTADYYCNREYRGAINYIYYYWGQGTQVTVSS", "low polyreactivity"]
]}

---

ASSAY_EXPLANATION: yeast display, Sf9 membrane polyspecificity reagent, FACS + sequencing; frameworks hold sequencing errors
PROPERTY: polyreactivity (PSR sort gate)

{"columns": ["SEQUENCE_DATA", "READING"],
 "data": [
  ["QVQLVESGGGLVQAGGSLRLSCAASGFTLSYYAMGWYRQAPGKERELVAAMTWSDTSTYYADSVKGRFTISRDKAKNTVYVQMNSLKPEDTAVYYCAAEDEWVTWGWGYYYWGQGTQVTVSS", "high polyreactivity"],
  ["QVHLVESVGGLVQAGGSLRLSCAASGRIFGYYAMGWYRQAPGKERELVAAISTNGGTTYYADSVKGRFTISRDNAKNTVYLQMNSLKPEDTAVYYCAATYTVPGHARYDYWGQGTQVTVSS", "low polyreactivity"],
  ["QVQLVESGGGLVQAGGSLRLSCAASGITFNGNAMGWYRQAPGKERELVAAITRTGTDTSYADSVKGRFTISRDNAKNTVYLQMNSLKPEDTAVYYCAAPPYNGYRYGTTGYYWGQGTQVTVSS", "low polyreactivity"],
  ["QVQLVESGGGLVQAGGSLRLSCAASGSTFYQYAMGWYRQAPGKERELVAVITGSGGSTYYADSVKGRFTISRDNAKNTVYLQMNSLKPEDTAVYYCAAGARYFIYRTTSLGGNYWGQGTQVTVSS", "high polyreactivity"],
  ["QVQLVESGGGLVQAGGSLRLSCAASGSIFEPNDMGWYRQAPGKEREFVAAISGSGGSTYYADSVKGRFTISRDNAKNTVYLQINSLKPEDTAVYYCANRGKRSYFRTFYYWGHGTQVTVSS", "high polyreactivity"],
  ["QVQLVESGGGLVQAGGSLRLSCAASGSIFLTYAMGWYRKAPGKERELVAAISGGGNTYYADSVKGRFTISRDNAKNTVYLQKNSLKPEDTAVYYCNAVPHIYAEGTAYNYWGQGTQVTVSS", "low polyreactivity"],
  ["QVQLEESGGGLVQAGGSLRLSCAASVSTFRLYVMGGYRQAPGKERQLVAAIDWSGGSTYYADSVKGRFTISRDNAKNTVYLQMNSLKPEDTAVYYCAADYSVASPDGPDVIYDYWGQGTQVTVSS", "low polyreactivity"],
  ["QVQLVESGGGLVQAGGSLRLSCAASGNTFVTYAMGWYRQAPGKVRELVATISSSGGSTYYADSVKGRFTISRDNAKNTVYLQMNSLKPEDTAVYYCAKQAWAYALYTNFYSGDYGYWGQGTQVTVSS", "low polyreactivity"],
  ["QVQLVESGGGLVQAGGSLRLSCAASGSTFRYNAMGWYRQAPGKERELVASISYNGGNTYYADSVKGRFTISRDNSKNTVYLQMNSLKPEDTAVYYCAAVPIKRGLILGDRGYNYWGQGTQVTVSS", "high polyreactivity"],
  ["QVQLVESGGGLVQAGGSLRLSCAASGFTFRRYAMGWYRQAPGQDRELVAAISYRGGTYYADSVKGRFTISRDNAKNTVYLQMNSLKPEDTAVYYCNARYRGKYSSYGYWGQGTQVTVSS", "high polyreactivity"],
  ["QVQLVESGGRLVQAGGSLRLSCAASGRTIVIYAMGWYRQAPGKEREFVAAISRSGGSTYYADSVKGRFTISRDNAKNTVYLQMNSLKPEDTAVYYCYTRTPYWFKSDYWGQGTQVTVSS", "low polyreactivity"]
]}
